Quick record: pIC50, metalloelastase (MMP-12) (Homo sapiens).
Give bare numbers, as −log10 of the molar value.

* O=C(NO)[C@H](O)CC(=O)N1CCN(c2ccc(F)cc2)CC1 [Example 1] | 6.58

Requested read-out pIC50, target or system metalloelastase (MMP-12) (Homo sapiens), entry C[C@@H]1CN(c2ccc(OC(F)(F)F)cc2)CCN1C(=O)C[C@H](O)C(=O)NO [Example 3]
8.30
